- target: Pro-Link-tagged Human GLP-1R (human) (UniProt P43220)
- Sequence (P43220 24-463): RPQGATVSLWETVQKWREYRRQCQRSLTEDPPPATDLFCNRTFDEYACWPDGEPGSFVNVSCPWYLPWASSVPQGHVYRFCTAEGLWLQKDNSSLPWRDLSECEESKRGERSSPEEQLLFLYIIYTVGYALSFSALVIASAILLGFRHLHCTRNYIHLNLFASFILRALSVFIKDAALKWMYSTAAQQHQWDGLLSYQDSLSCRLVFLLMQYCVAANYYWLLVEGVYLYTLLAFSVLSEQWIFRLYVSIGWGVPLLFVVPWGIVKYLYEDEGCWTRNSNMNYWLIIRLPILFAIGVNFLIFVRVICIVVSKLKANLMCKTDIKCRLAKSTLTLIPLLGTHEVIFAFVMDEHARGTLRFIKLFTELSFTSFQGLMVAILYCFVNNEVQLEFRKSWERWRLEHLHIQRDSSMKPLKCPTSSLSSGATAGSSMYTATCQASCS
- assay: cell-based or functional assay
Starred links: 1 amine or outer side, 2 acyl side, 3 side chain; linkers in the order of their positions; H or OH if unused. Non-standard residues stand in square brackets, D forms with d. Groups on a side chain read outwards from the residue. No end group written: not given here. *: point of attachment. C20 diacid = O=C(O)CCCCCCCCCCCCCCCCCCC(=O)*; αMePhe(2-F) = C[C@](N)(Cc1ccccc1F)C(=O)O; γGlu = O=C(O)[C@H](CCC(=O)[*:2])N[*:1]; αMeF = C[C@](N)(Cc1ccccc1)C(=O)O; αMeL = CC(C)C[C@](C)(N)C(=O)O; AEEA = NCCOCCOCC(=O)O; Aib = CC(C)(N)C(=O)O
Outcome: Fulfilled for % Stimulation Max of at least 40%; Not fulfilled for anything lower.

Request: // inclusive: % Stimulation Max at least 40%? input: Y[Aib]QGTFTSDYSI[αMeL]LDKQAAKAFVEWLLAGGPSSGEPPPSEG-NH2 (not fully specified (residue 20)) [Example 305]
Response: Fulfilled

Request: Quick one: Y[Aib]QGTFTSDYSI[αMeL]LDKK([AEEA-γGlu-C20 diacid])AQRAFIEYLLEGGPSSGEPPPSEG-NH2 (not fully specified) [Example 289]
Response: Fulfilled

Request: Same again, this time with Y[Aib]QGT[αMePhe(2-F)]TSDYSILLDKIAAK([AEEA-γGlu-C20 diacid])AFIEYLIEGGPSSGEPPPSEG-NH2 [Example 296]
Response: Fulfilled

Request: Try the binder YXQGTFTSDFSKXLDKKAQXAFIEYLLAGGPSSGEPPPSEE (synthetic construct; SITE 2: note = 2-Aminoisobutyric Acid; SITE 13: note = alpha-methyl-leucine; SITE 17: note = Lysine is chemically modified through conjugation of the epsilon-amino group of the Lysine side chain with (2-[2-(2-Amino-ethoxy)-ethoxy]-acetyl)-(gamma-Glu)-CO-(CH2) 18-CO2H; SITE 20: n) [Example 4]
Response: Not fulfilled

Request: Would you kindly repeat that for Y[Aib]QGT[αMePhe(2-F)]TSDYSKLLDKIAQK([AEEA-γGlu-C20 diacid])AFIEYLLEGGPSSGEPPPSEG-NH2 [Example 295] ?
Response: Fulfilled

Request: Field entry: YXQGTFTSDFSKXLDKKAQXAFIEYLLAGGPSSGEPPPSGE (synthetic construct; SITE 2: note = 2-Aminoisobutyric Acid; SITE 13: note = alpha-methyl-leucine; SITE 17: note = Lysine is chemically modified through conjugation of the epsilon-amino group of the Lysine side chain with (2-[2-(2-Amino-ethoxy)-ethoxy]-acetyl)-(gamma-Glu)-CO-(CH2) 18-CO2H; SITE 20: n) [Example 2]
Response: Not fulfilled

Request: Then HXQGTXTSDYSILLDKKAAXAFIEYLIETGPSSGEPPPSEG (synthetic construct; SITE 2: note = 2-Aminoisobutyric Acid; SITE 6: note = alpha-methyl-2-fluoro-L-phenylalanine; SITE 17: note = Lysine is chemically modified through conjugation of the epsilon-amino group of the Lysine side chain with (2-[2-(2-Amino-ethoxy)-ethoxy]-acetyl)-(gamma-Glu)-CO-(CH2) 18-) [Example 290] ?
Response: Fulfilled

Request: Now consider Y[Aib]QGT[αMeF]TSDYSILLDKIAAKNFIEYLVEGGPSSGEPPPSEG-NH2 (not fully specified (residue 20)) [Example 307] and answer again.
Response: Fulfilled

Reference source: patent US20240270821A1
